target: human nAChRα6-α3 chimera, in addition to β2 and β3^V273S subunits (Homo sapiens, UniProt P32297+Q15825); construct: expressed in transfected cells; test: fluorescence-based calcium assay: inhibition of nicotine stimulated nAChRα6 activity (FLIPR); conditions: HEK cell line stably expressing the receptor; 10 min pre-incubation, nicotine EC80; 10-point curve, duplicate wells; read-out: IC50
Sequence (Q05901 25-458 V273S): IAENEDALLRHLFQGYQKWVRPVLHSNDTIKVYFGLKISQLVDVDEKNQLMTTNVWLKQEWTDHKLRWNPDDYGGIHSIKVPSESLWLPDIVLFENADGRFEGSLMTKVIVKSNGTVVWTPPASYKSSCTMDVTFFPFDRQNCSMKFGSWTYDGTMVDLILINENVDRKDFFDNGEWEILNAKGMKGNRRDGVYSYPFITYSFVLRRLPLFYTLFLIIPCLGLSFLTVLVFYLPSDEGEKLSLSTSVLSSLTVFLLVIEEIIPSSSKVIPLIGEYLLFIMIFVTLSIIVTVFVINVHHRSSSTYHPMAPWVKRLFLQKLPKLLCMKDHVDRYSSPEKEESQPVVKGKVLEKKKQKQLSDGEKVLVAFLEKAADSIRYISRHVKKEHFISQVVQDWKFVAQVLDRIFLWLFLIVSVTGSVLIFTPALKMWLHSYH
Sequence (P17787 26-502, stated change not applied, further chain): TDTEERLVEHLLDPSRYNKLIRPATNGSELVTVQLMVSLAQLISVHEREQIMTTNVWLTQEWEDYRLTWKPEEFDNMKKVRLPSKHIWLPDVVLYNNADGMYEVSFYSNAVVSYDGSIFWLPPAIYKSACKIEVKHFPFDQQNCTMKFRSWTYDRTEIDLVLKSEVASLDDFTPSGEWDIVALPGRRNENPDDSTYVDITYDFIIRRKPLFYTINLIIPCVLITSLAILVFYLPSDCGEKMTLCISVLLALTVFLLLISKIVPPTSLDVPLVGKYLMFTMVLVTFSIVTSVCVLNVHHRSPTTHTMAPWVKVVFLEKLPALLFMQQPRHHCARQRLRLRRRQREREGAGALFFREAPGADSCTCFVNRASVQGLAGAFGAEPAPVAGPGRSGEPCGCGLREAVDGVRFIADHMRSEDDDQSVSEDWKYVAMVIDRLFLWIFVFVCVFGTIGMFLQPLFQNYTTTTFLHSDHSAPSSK
Sequence (Q15825+P32297 fused with the stated changes): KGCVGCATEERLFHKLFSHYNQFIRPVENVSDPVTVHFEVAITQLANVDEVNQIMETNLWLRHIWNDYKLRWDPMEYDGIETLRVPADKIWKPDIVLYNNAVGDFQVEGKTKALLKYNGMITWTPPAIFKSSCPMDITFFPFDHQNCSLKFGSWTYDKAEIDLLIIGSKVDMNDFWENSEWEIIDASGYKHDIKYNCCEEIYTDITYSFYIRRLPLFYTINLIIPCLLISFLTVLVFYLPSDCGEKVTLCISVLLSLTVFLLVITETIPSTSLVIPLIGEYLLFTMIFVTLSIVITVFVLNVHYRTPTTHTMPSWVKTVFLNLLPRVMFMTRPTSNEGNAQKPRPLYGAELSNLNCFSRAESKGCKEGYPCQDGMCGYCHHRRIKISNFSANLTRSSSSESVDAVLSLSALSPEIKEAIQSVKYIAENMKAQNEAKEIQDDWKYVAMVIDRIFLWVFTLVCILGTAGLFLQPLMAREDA
pIC50: −log10 of the molar value.
Please use YES whenever pIC50 is not below 7, and NO whenever it is.

Field: example entries. Status: answers known.
{"compound": "Cc1nc(NC[C@@H]2CCCN2C)ncc1-c1ccc(C(F)(F)F)cc1F [Example 91b]", "assigned-category": "YES"}
{"compound": "Cc1nc(NCC2CCN(C)C2)ncc1-c1ccc(F)cc1F (stereo not drawn) [Example 13]", "assigned-category": "YES"}
{"compound": "COc1ccc(-c2cnc(NC3CCCC(OC)C3)nc2C)c(F)c1 (single isomer, unassigned) [Example 53a]", "assigned-category": "NO"}

Task: State whether the measured pIC50 reaches 7, counting equality as reaching it, for Cc1nc(NCCC2CCCN2C)ncc1-c1ccc(C(F)(F)F)cc1F (stereo not drawn) [Example 106]
Result: YES

Task: State whether the measured pIC50 reaches 7, counting equality as reaching it, for Cc1nc(NCC2CCCCN2)ncc1-c1ccc(C(F)(F)F)cc1F (stereo not drawn) [Example 104]
Result: YES

Task: State whether the measured pIC50 reaches 7, counting equality as reaching it, for COc1ccc(-c2cnc(NCC3CCCCN3C)nc2C#N)c(F)c1 (stereo not drawn) [Example 25]
Result: YES

Task: State whether the measured pIC50 reaches 7, counting equality as reaching it, for COc1ccc(-c2cnc(NCC3CCCN3C)nc2C)c(F)c1 (single isomer, unassigned) [Example 28b]
Result: YES

Task: State whether the measured pIC50 reaches 7, counting equality as reaching it, for COc1ccc(-c2nnc(NCC3CCCN3C)nc2C)c(F)c1 (single isomer, unassigned) [Example 54b]
Result: NO

Task: State whether the measured pIC50 reaches 7, counting equality as reaching it, for Cc1nc(NC[C@@H]2CCCN2)ncc1-c1ccc(F)cc1F [Example 94b]
Result: YES

Task: State whether the measured pIC50 reaches 7, counting equality as reaching it, for Cc1nc(N[C@H]2CCNC[C@@H]2F)ncc1-c1ccc(C(F)(F)F)cc1F [Example 124]
Result: NO

Task: State whether the measured pIC50 reaches 7, counting equality as reaching it, for Cc1nc(NC[C@H]2CCCN2)ncc1-c1ccc(F)cc1F [Example 94a]
Result: YES
